Source: ChEMBL document CHEMBL3797185

# measured.target: UniProt:P29275
# Sequence (P29275 whole entry): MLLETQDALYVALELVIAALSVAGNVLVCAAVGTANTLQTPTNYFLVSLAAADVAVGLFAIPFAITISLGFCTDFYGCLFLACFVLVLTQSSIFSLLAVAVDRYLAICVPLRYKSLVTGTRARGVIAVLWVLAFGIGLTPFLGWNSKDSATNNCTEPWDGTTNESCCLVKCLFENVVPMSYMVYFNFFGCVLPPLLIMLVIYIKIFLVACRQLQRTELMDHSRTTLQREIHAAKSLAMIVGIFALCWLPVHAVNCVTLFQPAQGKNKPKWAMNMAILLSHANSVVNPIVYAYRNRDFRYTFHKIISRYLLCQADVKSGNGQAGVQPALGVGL
# test.description: Antagonist activity at human adenosine A2B receptor expressed in CHO cell membranes assessed as inhibition of NECA-stimulated cAMP level preincubated for 10 mins followed by NECA stimulation by scintillation counting method in presence of [3H]-cyclic AMP
readout.label: IC50 (nM)

Past entries and their recorded results:
smiles_string=Cc1ccc(-c2nc(N)c3nn(Cc4ccccc4O)cc3n2)o1 readout_label=IC50 endpoint_value=395
smiles_string=Cc1ccc(-c2nc(N)c3nn(Cc4cccc(F)c4)cc3n2)o1 readout_label=IC50 endpoint_value=421
smiles_string=Cc1ccc(-c2nc(N)c3nn(Cc4cccc(O)c4)cc3n2)o1 readout_label=IC50 endpoint_value=633
smiles_string=Cc1ccc(-c2nc(N)c3nn(Cc4ccccc4F)cc3n2)o1 readout_label=IC50 endpoint_value=354
smiles_string=Nc1nc(-c2ccco2)nc2cn(Cc3ccccc3O)nc12 readout_label=IC50 endpoint_value=112

[P] COc1ccccc1Cn1cc2nc(-c3ccco3)nc(N)c2n1
[Q] Cc1ccc(-c2nc(N)c3nn(Cc4ccccc4Cl)cc3n2)o1
[R] COc1cccc(Cn2cc3nc(-c4ccc(C)o4)nc(N)c3n2)c1
[Q] Descending sort on IC50 required. Labels, requested order.
[A] P, R, Q
(P: 512 nM, R: 293 nM, Q: 152 nM)
